// reported growth, % of control for each item listed
methodNotes: qHTS profiling of the MIPE4 collection as inhibitors of Plasmodium falciparum (HB3) proliferation (AID 743347);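 note: plate controls were DMSO vehicle wells for no effect and artemisinin wells for full effect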
details: P. falciparum HB3 in erythrocytes, SYBR Green DNA, 72 h; at 28.5 µM (top of the series) unless noted
Answer with a number only, understood to be in %.

// known answers, use as guide
O=C(O)c1ccc2c(c1)nc(Nc1cccc(Cl)c1)c1ccncc12 :: 4.4
Cc1nc(Nc2n[nH]c3c2CN(C(=O)N[C@H](CN(C)C)c2ccccc2)C3(C)C)c2sccc2n1 :: 6.35
N#Cc1c(O)c2c(-c3ccc(-c4ccccc4O)cc3)csc2[nH]c1=O :: 71.1
CCCn1c(=O)c2[nH]c(-c3cnn(Cc4cccc(C(F)(F)F)c4)c3)nc2n(CC)c1=O :: 51.8
C[C@@H]1CN(CC(=O)Nc2ccc3c(c2)Cc2cccc(-c4cc(=O)cc(N5CCOCC5)o4)c2S3)C[C@H](C)O1 :: 2.59
Nc1cccc(-c2cc3c(Oc4cccc(O)c4)ncnc3[nH]2)c1 :: 43.2

Name the reported growth, % of control value associated with the compound CNC(=O)c1ccccc1Nc1nc(Nc2ccc(N3CCOCC3)cc2OC)ncc1Cl
7.48

Name the reported growth, % of control value associated with the compound Cc1ccc(C(N)=O)cc1Nc1nccc(-c2cn(C(C)C)c3cnccc23)n1
3.05

Name the reported growth, % of control value associated with the compound CC(C)(O)CCc1ccc(OCc2cc(-c3cccc(OC(F)F)c3)c3ncccc3c2)cc1
102

Name the reported growth, % of control value associated with the compound CCc1c2c(nc3ccc(O)cc13)-c1cc3c(c(=O)n1C2)COC(=O)[C@]3(O)CC
11.3

Name the reported growth, % of control value associated with the compound CCCCCN(CCC12CC3CC(CC(C3)C1)C2)C(=O)NCCCc1ccncc1
6.74

Name the reported growth, % of control value associated with the compound O=C(c1ccc(Nc2nccc(-c3cc4ccccc4s3)n2)cc1)N1CCC(N2CCCC2)CC1
4.99

Name the reported growth, % of control value associated with the compound c1cc(-c2cnn3cc(-c4ccc(OCCN5CCCCC5)cc4)cnc23)ccn1
4.45

Name the reported growth, % of control value associated with the compound O=C(c1cncc(Br)c1)N1CCC(N2CCCC2)CC1
96.9

Name the reported growth, % of control value associated with the compound CC(O)C1C(=O)N2C(C(=O)O)=C(SC3CNC(C(=O)N(C)C)C3)C(C)C12 (stereo not drawn)
75.4

Name the reported growth, % of control value associated with the compound Nc1ccc(C(=O)c2cc3c(ccc4ccccc43)[nH]2)cc1
409

Name the reported growth, % of control value associated with the compound COc1cc2nccc(Oc3ccc(NC(=O)C4(C(=O)Nc5ccc(F)cc5)CC4)cc3)c2cc1OC
2.54

====

methodNotes: Quantitative High-Throughput drug screen in 47 multiple myeloma cell lines against the NCATS MIPE library collection: MM1R_ATCC cell viability assay (AID 1918981); note: nearly all actives have a fitted effect of over 35% in size; note: potency is the fitted concentration of half-maximal effect
details: MM1R multiple myeloma cells, CellTiter-Glo viability, 48 h; series mostly up to 45.8 µM
Records with an inconclusive call do not appear. Calls of active or inactive are those of the source. Calls follow the shape of the dose curve; as a rule, active = well fitted cell-killing curve with a large enough effect; inconclusive = small, poorly fitted or top-dose-only effect, or effect the other way; inactive = no such curve, though single readings can be large or run the other way.
experimentalEndpoint: Potency

// known answers, use as guide
C=CC(=O)Nc1cccc(Oc2nc(Nc3ccc(N4CCN(C)CC4)cc3)ncc2Cl)c1 :: 14.8 µM (active)
Cn1cc(-c2ccncc2)c(-c2ccc(OCc3ccc4ccccc4n3)cc2)n1 :: 10.5 µM (active)
CCCCc1nc2cc(C=CC(=O)NO)ccc2n1CCN(CC)CC :: 0.235 µM (active)
C[C@@H]1CN(CC(=O)Nc2ccc3c(c2)Cc2cccc(-c4cc(=O)cc(N5CCOCC5)o4)c2S3)C[C@H](C)O1 :: 16.6 µM (active)
CC(C)c1noc(N2CCC(COc3ccc(-c4ccc(S(C)(=O)=O)cc4)nc3)CC2)n1 :: 13.2 µM (active)

Name the reported Potency value associated with the molecule O=C(c1cncc(Br)c1)N1CCC(N2CCCC2)CC1
inactive

Name the reported Potency value associated with the molecule Cc1nc2cnc3ccc(C#Cc4cccnc4)cc3c2n1-c1ccc(C(C)(C)C#N)cc1
0.166 µM (active)

Name the reported Potency value associated with the molecule CCS(=O)(=O)c1cccc(-c2cc(C(=O)NC3CCN(C)CC3)c(C)c3[nH]c4ncc(C)cc4c23)c1
1.66 µM (active)

Name the reported Potency value associated with the molecule Cc1cc(Nc2nc(N[C@@H](C)c3ccc(F)cc3)c(C#N)cc2F)n[nH]1
3.32 µM (active)

Name the reported Potency value associated with the molecule CC[C@@H]1C(=O)N(C)c2cnc(Nc3ccc(C(=O)NC4CCC(N5CCN(CC6CC6)CC5)CC4)cc3OC)nc2N1C(C)C (some centres undefined)
1.87 µM (active)

Name the reported Potency value associated with the molecule CCCCCCCCCC(=O)N[C@@H](Cc1c[nH]c2ccccc12)C(=O)N[C@H](CC(N)=O)C(=O)N[C@@H](CC(=O)O)C(=O)N[C@@H]1C(=O)NCC(=O)N[C@@H](CCCN)C(=O)N[C@@H](CC(=O)O)C(=O)N[C@H](C)C(=O)N[C@@H](CC(=O)O)C(=O)NCC(=O)N[C@H](CO)C(=O)N[C@@H]([C@@H](C)CC(=O)O)C(=O)N[C@@H](CC(=O)c2ccccc2N)C(=O)O[C@@H]1C
inactive

The reported numbers originate from PubChem BioAssay (NCATS).
